# assay method text: gradient 5% acetonitrile 3 min, to 50% in 2 min, to 85% in 15 min, held 3 min, 100 µL/min
# condition notes: column: Zorbax Extend-C18 2.1 x 50 mm; eluents: water / acetonitrile, 0.1% formic acid
property label: RP-LC retention time (s)
Respond with the bare value in s.

Known results for molecules:
[[record]]
molecule = "COc1ccc(N2CCN(C(=O)c3ccc4c(c3)NC(=O)C3CCCCN43)CC2)cc1 (stereo not given)"
unit_of_measure = "s"
measured_result = 756

[[record]]
molecule = "CC1CCCCC1NC(=O)c1sc2ncccc2c1-n1cccc1 (stereo not given)"
unit_of_measure = "s"
measured_result = 1260

[[record]]
molecule = "COc1cc(C(C)=O)ccc1OCC(=O)NCCn1cnc(-c2ccc(F)cc2)cc1=O"
unit_of_measure = "s"
measured_result = 661


Prompt: Consider the molecule O=C1CN(C(=O)c2cccc(C(F)(F)F)c2)c2ccccc2N1 and give its measured RP-LC retention time.
Response: 732

Prompt: // next record COc1ccc(C(C)NC(=O)c2cn3c(n2)COCC3)cc1OC (stereo not given)
Response: 608

Prompt: // next record Cc1cnc2c(c1SCC(=O)N(C)c1ccccc1)c(=O)n(C)c(=O)n2C
Response: 769

Prompt: // next record Cc1nc(-c2csc(S(=O)(=O)N3CCCC(C(=O)N4CCC5(CC4)OCCO5)C3)c2)no1 (stereo not given)
Response: 798

Prompt: // next record CC(C)n1c(N2CCN(C(=O)c3cccnc3)CC2)cc(=O)n(C(C)C)c1=O
Response: 602

Prompt: // next record O=C(Cc1cccs1)N1CCN(S(=O)(=O)c2cc(-c3noc(C4CCC4)n3)cs2)CC1
Response: 1010

Prompt: // next record Cc1cc(C)cc(N2CCCn3c2nc2c3c(=O)n(C)c(=O)n2C)c1
Response: 841

Prompt: // next record CCCCNC(=O)C1CCCN1C(=O)c1ccc(NC(=O)C(C)(C)C)cc1 (stereo not given)
Response: 693
